Source listed as patent US20260125382A1.

Assay Target: CDK2 (Homo sapiens)
Construct: endogenous in cells; host or cells: MDA-MB-231
Test Details: CDK protein degradation activity (Western blotting), CDK2
Type: cell-based
Condition Description: MDA-MB-231 cells, 10 μM, 16 hours, Western blot
Procedure: In order to evaluate the CDK protein degradation activity of the compounds according to the present invention, the following experiment was conducted. MDA-MB-231 cells were seeded at 5×10^5 cells per well in a 6-well plate. The next day, the compounds were treated in each well to achieve final concentrations of 100 nM, 1 μM, and 10 μM. […] Cell lysates were quantified and separated by size using sodium dodecyl sulfate-polyacrylamide gel electrophoresis (SDS-PAGE). […]
Measurement Label: Enzyme degradation CDK2 (% remaining) @ 10 μM (%)

[1] Cc1cccc(C(=O)NC2CC(n3cnc4c(NCc5cccc(N6CCN(C(=O)COc7cccc8c7C(=O)N([C@H]7CCC(=O)NC7=O)C8=O)CC6)c5)ncnc43)C2)n1 (stereo partly drawn)
[2] O=C1CCC(N2C(=O)c3cccc(OCC(=O)N4CCN(CCCN5CCN(c6ccc(Nc7ncnc8c7ncn8[C@H]7C[C@@H](NC(=O)Cc8ccccc8)C7)cc6)CC5)CC4)c3C2=O)C(=O)N1 (stereo partly drawn)
[3] Cc1cccc(C(=O)N[C@H]2C[C@@H](n3cnc4c(NCc5cccc(OCCCN6CCN(C(=O)CNc7ccc8c(c7)C(=O)N([C@H]7CCC(=O)NC7=O)C8=O)CC6)c5)ncnc43)C2)n1
hey, can you rank those compounds up there by Enzyme degradation CDK2 (% remaining) @ 10 μM? biggest number first please Thanks in advance for listing the labels in the requested order.
1, 3, 2
(1: 100%, 3: 70%, 2: 20%)

====

Assay Target: CDK9 (Homo sapiens, UniProt P50750)
Construct: endogenous in cells; host or cells: MDA-MB-231
Sequence (P50750 whole entry): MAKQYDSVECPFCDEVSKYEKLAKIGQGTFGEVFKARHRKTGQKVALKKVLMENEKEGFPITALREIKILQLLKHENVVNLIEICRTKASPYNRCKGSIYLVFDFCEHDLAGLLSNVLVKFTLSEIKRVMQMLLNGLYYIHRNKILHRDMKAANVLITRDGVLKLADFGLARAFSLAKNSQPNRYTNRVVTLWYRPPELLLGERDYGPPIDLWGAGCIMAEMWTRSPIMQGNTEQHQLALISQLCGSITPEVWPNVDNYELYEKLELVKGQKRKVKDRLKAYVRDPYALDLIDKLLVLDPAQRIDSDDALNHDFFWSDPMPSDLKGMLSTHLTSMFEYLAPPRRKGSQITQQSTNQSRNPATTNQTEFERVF
Test Details: CDK protein degradation activity (Western blotting), CDK9
Type: cell-based
Condition Description: MDA-MB-231 cells, 0.1 μM, 16 hours, Western blot
Measurement Label: Enzyme degradation CDK9 (% remaining) @ 0.1 μM

Before answering, review these 3 worked examples.
O=C1CC[C@H](N2C(=O)c3cc(F)c(N4CCC(C(=O)N5CCC6(CC5)CC(N5CCN(c7ccc(Nc8ncnc9c8ncn9C8CC(NC(=O)Cc9ccccc9)C8)cc7)CC5)C6)CC4)cc3C2=O)C(=O)N1 (some centres unmarked) : 0/0/0%
Cc1cccc(C(=O)NC2CC(n3cnc4c(Nc5ccc(N6CCN(CCC7CCN(C(=O)C8CCN(c9cc%10c(cc9F)C(=O)N([C@H]9CCC(=O)NC9=O)C%10=O)CC8)CC7)CC6)cc5)ncnc43)C2)n1 (some centres unmarked) : 10/10/10%
O=C1CC[C@H](N2C(=O)c3cccc(NCC(=O)N4CCC(CN5CCN(c6ccc(Nc7ncnc8c7ncn8C7CC(NC(=O)c8cccc(F)n8)C7)cc6)CC5)CC4)c3C2=O)C(=O)N1 (some centres unmarked) : 0/0/0%

# query: Enzyme degradation CDK9 (% remaining) @ 0.1 μM | item O=C1CC[C@H](N2C(=O)C=C(Nc3cccc(CC(=O)N4CCC(CC(=O)N5CCN(c6ccc(Nc7ncnc8c7ncn8[C@H]7C[C@@H](NC(=O)Cc8ccccc8)C7)cc6)CC5)CC4)c3)C2=O)C(=O)N1 | system: CDK9 (Homo sapiens, UniProt P50750)
30%

Check O=C1CC[C@@H](c2ccc(OCC(=O)N3CCC(CN4CCN(c5ccc(Nc6ncnc7c6ncn7[C@H]6C[C@@H](NC(=O)c7cccc(Cl)n7)C6)cc5)CC4)CC3)cc2)C(=O)N1 too.
10/10/10%

====

Assay Target: CDK9 (Homo sapiens)
Construct: endogenous in cells; host or cells: MDA-MB-231
Test Details: CDK protein degradation activity (Western blotting), CDK9
Type: cell-based
Condition Description: MDA-MB-231 cells, 10 μM, 16 hours, Western blot
Experimental: In order to evaluate the CDK protein degradation activity of the compounds according to the present invention, the following experiment was conducted. MDA-MB-231 cells were seeded at 5×10^5 cells per well in a 6-well plate. The next day, the compounds were treated in each well to achieve final concentrations of 100 nM, 1 μM, and 10 μM. […] Cell lysates were quantified and separated by size using sodium dodecyl sulfate-polyacrylamide gel electrophoresis (SDS-PAGE). […]
Measurement Label: Enzyme degradation CDK9 (% remaining) @ 10 μM (%)

O=C1CC[C@H](N2C(=O)c3ccc(N4CCC(CN5CCN(c6ccc(Nc7ncnc8c7ncn8[C@H]7C[C@@H](NC(=O)Cc8ccccc8)C7)cc6)CC5)CC4)cc3C2=O)C(=O)N1 : 0

[I] O=C1CCC(N2C(=O)c3cccc(N4CCC(CN5CCC(CNc6ncnc7c6ncn7[C@H]6C[C@@H](NC(=O)Cc7ccccc7)C6)CC5)CC4)c3C2=O)C(=O)N1 (some centres unmarked)
[II] Cc1cccc(C(=O)N[C@H]2C[C@@H](n3cnc4c(NCc5cccc(N6CCN(C(=O)CNc7cccc8c7C(=O)N(C7CCC(=O)NC7=O)C8=O)CC6)c5)ncnc43)C2)n1 (some centres unmarked)
Would you mind telling me which has the lower recorded Enzyme degradation CDK9 (% remaining) @ 10 μM between I and II ? Indicate which entry you chose by stating its label.
I

====

# Enzyme degradation CDK9 (% remaining) @ 0.1 μM annotations
Assay Target: CDK9 (Homo sapiens)
Construct: endogenous in cells; host or cells: MDA-MB-231
Test Details: CDK protein degradation activity (Western blotting), CDK9
Type: cell-based
Condition Description: MDA-MB-231 cells, 0.1 μM, 16 hours, Western blot

Before answering, review these 9 worked examples.
O=C(COc1ccc(C2CCC(=O)NC2=O)cc1)NC[C@H]1CC[C@H](CN2CCN(c3ccc(Nc4ncnc5c4ncn5[C@H]4C[C@@H](NC(=O)Cc5ccccc5)C4)cc3)CC2)CC1 (stereo partly shown) : 0/0/0%
Cc1cccc(C(=O)NC2CC(n3cnc4c(NCc5ccc(N6CCN(C(=O)CNc7cccc8c7C(=O)N([C@H]7CCC(=O)NC7=O)C8=O)CC6)cc5)ncnc43)C2)n1 (stereo partly shown) : 10%
O=C1CC[C@H](N2C(=O)c3ccc(N4CC(C(=O)N5CCC(CCN6CCN(c7ccc(Nc8ncnc9c8ncn9C8CC(NC(=O)Cc9ccccc9)C8)cc7)CC6)CC5)C4)cc3C2=O)C(=O)N1 (stereo partly shown) : 0/0/0%
O=C1CC[C@H](N2C(=O)c3ccc(N4CC(N5CCC6(CC5)CC(N5CCN(c7ccc(Nc8ncnc9c8ncn9C8CC(NC(=O)Cc9ccccc9)C8)cc7)CC5)C6)C4)cc3C2=O)C(=O)N1 (stereo partly shown) : 20%
Cc1cccc(C(=O)N[C@H]2C[C@@H](n3cnc4c(NCc5cccc(N6CCN(C(=O)CNc7ccc8c(c7)C(=O)N([C@H]7CCC(=O)NC7=O)C8=O)CC6)c5)ncnc43)C2)n1 : 60/60/60%
O=C1CCC(N2C(=O)c3ccc(N4CCC(OCCN5CCN(c6ccc(Nc7ncnc8c7ncn8[C@H]7C[C@@H](NC(=O)Cc8ccccc8)C7)cc6)CC5)CC4)cc3C2=O)C(=O)N1 (stereo partly shown) : 60/60/60%
O=C1CC[C@H](N2C(=O)c3cc(F)c(N4CCC(C(=O)N5CCC(CN6CCN(c7ccc(Nc8ncnc9c8ncn9C8CC(NC(=O)c9cccc(Cl)n9)C8)cc7)CC6)CC5)CC4)cc3C2=O)C(=O)N1 (stereo partly shown) : 0/0/0%
O=C1CC[C@H](N2C(=O)c3ccc(N4CCC(C(=O)N5CCC(CN6CCN(c7ccc(Nc8ncnc9c8ncn9C8CC(NC(=O)c9c(Cl)cccc9Cl)C8)cc7)CC6)CC5)CC4)cc3C2=O)C(=O)N1 (stereo partly shown) : 0/0/0%
O=C1CC[C@@H](c2ccc(OCC(=O)N3CCC(CCN4CCN(c5ccc(Nc6ncnc7c6ncn7[C@H]6C[C@@H](NC(=O)c7cccc(C(F)(F)F)n7)C6)cc5)CC4)CC3)cc2)C(=O)N1 : 10/10/10%

# ---- query molecule ----
Name the recorded Enzyme degradation CDK9 (% remaining) @ 0.1 μM for O=C(Cc1cccc(NC2=CC(=O)N(C3CCC(=O)NC3=O)C2=O)c1)NC[C@H]1CC[C@H](CN2CCN(c3ccc(Nc4ncnc5c4ncn5[C@H]4C[C@@H](NC(=O)Cc5ccccc5)C4)cc3)CC2)CC1 (stereo partly shown) .
20/20/20%

====

Assay Target: CDK2 (Homo sapiens)
Construct: endogenous in cells; host or cells: MDA-MB-231
Test Details: CDK protein degradation activity (Western blotting), CDK2
Format: cell-based
Condition Description: MDA-MB-231 cells, 1 μM, 16 hours, Western blot
Measurement Label: Enzyme degradation CDK2 (% remaining) @ 1 μM (%)

[1] Cc1cccc(C(=O)NC2CC(n3cnc4c(NCc5cccc(N6CCN(C(=O)COc7cccc8c7C(=O)N([C@H]7CCC(=O)NC7=O)C8=O)CC6)c5)ncnc43)C2)n1 (stereo partly drawn)
[2] O=C1CC[C@@H](c2cccc(OCC(=O)N3CCC(CC(=O)N4CCN(c5ccc(Nc6ncnc7c6ncn7[C@H]6C[C@@H](NC(=O)Cc7ccccc7)C6)cc5)CC4)CC3)c2)C(=O)N1
Given 1 and 2 , report the one with the higher recorded Enzyme degradation CDK2 (% remaining) @ 1 μM. Indicate which entry you chose by stating its label.
1
(1: 50%, 2: 20%)
